- system.name: MRSA PK (Staphylococcus aureus, UniProt Q6GG09)
- Construct: His tag (pET-28a(+) vector) (N); made in house; host or cells: E. coli BL-21 (DE3)
- Sequence (Q6GG09 whole entry): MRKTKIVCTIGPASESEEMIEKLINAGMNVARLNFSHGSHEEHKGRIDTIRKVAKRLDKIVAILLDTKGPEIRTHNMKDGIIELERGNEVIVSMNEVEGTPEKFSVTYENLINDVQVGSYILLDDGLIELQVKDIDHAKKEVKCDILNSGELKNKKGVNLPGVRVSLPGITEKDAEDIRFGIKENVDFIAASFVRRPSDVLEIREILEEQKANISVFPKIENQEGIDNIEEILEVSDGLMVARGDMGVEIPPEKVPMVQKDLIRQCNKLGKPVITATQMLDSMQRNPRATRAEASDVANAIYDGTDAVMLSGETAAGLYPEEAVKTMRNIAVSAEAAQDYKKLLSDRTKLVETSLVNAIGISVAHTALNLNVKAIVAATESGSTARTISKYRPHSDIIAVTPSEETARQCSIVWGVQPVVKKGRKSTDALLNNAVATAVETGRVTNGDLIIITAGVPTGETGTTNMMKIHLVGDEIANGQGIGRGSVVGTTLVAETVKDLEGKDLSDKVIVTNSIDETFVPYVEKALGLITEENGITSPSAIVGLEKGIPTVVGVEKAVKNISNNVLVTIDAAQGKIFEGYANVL
- test.summary: MRSA PK activity, continuous LDH-coupled assay
- Format: biochemical, S. aureus (MRSA strain Sanger 252)
pIC50: −log10 of the molar value.
measure.name: pIC50

Problem: Fill in the blank: the reported pIC50 of O=C(Nc1ccc(Cl)cc1)c1[nH]c2cc(Br)ccc2c1C(=O)O [Compound 129] is ____.
Solution: > 7.30

Problem: Fill in: pIC50 of Fc1ccc(/C=C/c2cc3ccc(Br)cc3[nH]2)cc1 [Compound 103, (E)-6-Bromo-2-(4-fluorostyryl)-1H-indole] is ___
Solution: < 6.00

Problem: # get_value(readout='pIC50', item= Brc1ccc(/C=C/c2cc3ccc(Br)cc3[nH]2)nc1 [Compound 99] )
Solution: 7.00 to 7.30

Problem: For Clc1ccc(/C=C/c2cc3ccc(Br)cc3[nH]2)nc1 [Compound 108] , what is its reported pIC50?
Solution: 6.00 to 7.00

Problem: # pIC50 lookup, item Brc1ccc2cc(CNCc3ccccc3)[nH]c2c1 [Compound 146]
Solution: < 6.00

---

- Tested on: S. aureus ATCC 29213
- test.summary: In vitro susceptibility, broth microdilution MIC
- Assay type: cell-based, Staphylococcus aureus
- measurement.parameters: Staphylococcus aureus, ATCC29213, Table 8; tested at least in duplicate, differing values all given; read-out: MIC
Field: MIC. Provide a value for each of the compounds that follow.

Problem: What measured MIC goes with Clc1cc(Cl)cc(CCc2cc3ccc(Br)cc3[nH]2)c1 ?
Solution: > 64 µg/mL

Problem: What does the record list as MIC for Clc1ccc(C#Cc2cc3ccc(Br)cc3[nH]2)nc1 ?
Solution: > 64 µg/mL

Problem: Item under review: Clc1cccc(/C=C/c2cc3ccc(Br)cc3[nH]2)c1 [Compound 96, (E)-6-Bromo-2-(3-chlorostyryl)-1H-indole] . Reported MIC?
Solution: > 64 µg/mL

Problem: Return reported MIC; argument: COC(=O)c1c(C(=O)Nc2ccc(Cl)cc2)[nH]c2cc(Br)ccc12
Solution: > 64 µg/mL

Problem: What does the record list as MIC for Brc1cncc(/C=C/c2cc3ccc(Br)cc3[nH]2)c1 ?
Solution: > 64 µg/mL

Problem: Consider the compound shown here: Clc1cc(Cl)cc(/C=C/c2cc3ccc(Br)cc3[nH]2)c1 What is its recorded MIC?
Solution: 7.1 µg/mL

Problem: Suppose we examine the compound O=C(c1c(/C=C/c2ccc(Cl)cc2)[nH]c2cc(Br)ccc12)C(F)(F)F ; what MIC value has been reported?
Solution: 1 µg/mL

Problem: // query MIC value for entry Brc1ccc2cc(/C=C/c3cc(-c4ccccc4)on3)[nH]c2c1
Solution: > 64 µg/mL

Problem: What value of measured MIC is listed for Brc1ccc2cc(/C=C/c3ccc(-n4ccnc4)cc3)[nH]c2c1 ?
Solution: > 64 µg/mL

Problem: Endpoint output: MIC of COC(=O)c1c(C(=O)Nc2ccc(Cl)cn2)[nH]c2cc(Br)ccc12 . Value?
Solution: > 64 µg/mL

Problem: Fill blank: measured MIC of the compound O=C(c1c(C#Cc2ncccn2)[nH]c2cc(Br)ccc12)C(F)(F)F is ____.
Solution: > 64 µg/mL

Problem: Entry under review: Clc1ccc(CCc2cc3ccc(Br)cc3[nH]2)cn1 . Reported MIC?
Solution: > 64 µg/mL

Problem: I would be grateful if you could share the reported MIC for CC(=O)c1c(CCc2cn3c(n2)CCCC3)[nH]c2cc(Br)ccc12 .
Solution: 64 µg/mL

Problem: Looking for the measured MIC of COc1ccc(NC(=O)c2[nH]c3cc(Br)ccc3c2C(=O)O)cn1 , can you help?
Solution: > 64 µg/mL

Problem: // query MIC value for entry Cc1cnc(/C=C/c2cc3ccc(Br)cc3[nH]2)cn1
Solution: > 64 µg/mL

Problem: Which value of MIC has been reported for Fc1ccc(/C=C/c2cc3ccc(Br)cc3[nH]2)cc1 [Compound 103, (E)-6-Bromo-2-(4-fluorostyryl)-1H-indole] in the records?
Solution: > 64 µg/mL

Problem: Recorded MIC for FC(F)(F)c1ccc(/C=C/c2cc3ccc(Br)cc3[nH]2)cc1 , please?
Solution: 64 µg/mL

Problem: If you can, please state the reported MIC value of O=C(O)c1c(/C=C/c2ccc(Cl)nc2)[nH]c2cc(Br)ccc12 .
Solution: 64 µg/mL

Problem: // returns reported MIC for input O=C(O)c1c(/C=C/c2ccc(Br)cn2)[nH]c2cc(Br)ccc12
Solution: 32 µg/mL

Problem: Reported MIC, compound COC(=O)c1c(C(=O)Nc2ccc(Br)cc2)[nH]c2cc(Br)ccc12 : ____
Solution: > 64 µg/mL

Problem: # input compound: Brc1ccc2cc(CCc3cn4ccccc4n3)[nH]c2c1 ; wanted: its MIC
Solution: > 64 µg/mL

Problem: Dear colleague, I am looking for the recorded MIC of the following compound: O=C(O)c1c(-c2cc3cc(Cl)ccc3[nH]2)[nH]c2cc(Br)ccc12
Solution: 4 µg/mL

Problem: Fill in: MIC of Clc1ccc(NCc2cc3ccc(Br)cc3[nH]2)cc1 is ___
Solution: > 64 µg/mL

Problem: Entry O=C(c1c(CCc2cc(Cl)cc(Cl)c2)[nH]c2cc(Br)ccc12)C(F)(F)F : reported MIC = ?
Solution: 1 µg/mL

Problem: Can you share its MIC? I mean this compound: COc1ccc(NC(=O)c2[nH]c3cc(Br)ccc3c2C(=O)O)cc1
Solution: 64 µg/mL

---

Kindly supply the reported inhibition at 10 µM values for the records listed here.
- system.name: MRSA PK (Staphylococcus aureus, UniProt Q6GG09)
- Construct: His tag (pET-28a(+) vector) (N); made in house; host or cells: E. coli BL-21 (DE3)
- test.summary: MRSA PK activity, continuous LDH-coupled assay
- Type: biochemical, S. aureus (MRSA strain Sanger 252)
- measurement.parameters: read-out: % inhibition at the highest concentration tested (IC50)
Numbers only; they are read as %.

Problem: Returns the measured inhibition at 10 µM for the input compound. Input: Oc1ccc(Br)cc1-c1ccnc(-c2cc3ccc(Br)cc3[nH]2)c1
Solution: 62

Problem: I have this compound here, Brc1ccc2[nH]c(-c3cc4ccccc4o3)cc2c1 [Compound 22e, 2-(Benzofuran-2-yl)-5-bromo-1H-indole] , and I need its recorded inhibition at 10 µM.
Solution: 45

Problem: Query (compound): O=C(Nc1nc2cc(Br)ccc2s1)c1cc(Br)ccc1O ; field requested: inhibition at 10 µM
Solution: 60

Problem: Given the compound O=C(Nc1nc2ccc(Br)cc2s1)c1ccccc1O , what is its reported inhibition at 10 µM?
Solution: 59

Problem: Tell me the measured inhibition at 10 µM of Brc1ccc2cc(-c3cccc(-c4cc5ccccc5[nH]4)c3)[nH]c2c1 [Compound 33f] , please.
Solution: 36

Problem: # get_value(readout='inhibition at 10 µM', item= O=C(Nc1ccc(Br)cc1)c1cc2ccccc2[nH]1 )
Solution: 67

Problem: Requested read-out: inhibition at 10 µM. Entry: Brc1ccc2[nH]c(-c3cc4ccccc4[nH]3)cc2c1 [Compound 10h, 5-Bromo-1H,1′H-2,2′-biindole]
Solution: 36

Problem: Param item = c1ccc2[nH]c(-c3ccc(-c4cc5ccccc5[nH]4)cc3)cc2c1 ; retrieve measured inhibition at 10 µM.
Solution: 52

Problem: Query (compound): Cn1c(C#Cc2cc3ccc(Br)cc3n2C)cc2ccc(Br)cc21 [Compound 26b] ; field requested: inhibition at 10 µM
Solution: 27

Problem: Consider the compound shown here: Brc1ccc(-c2cncc(-c3cc4ccccc4[nH]3)n2)cc1 What is its recorded inhibition at 10 µM?
Solution: 79

Problem: Entry COc1c(Br)cccc1C(=O)Nc1nc2ccc(Br)cc2s1 : reported inhibition at 10 µM = ?
Solution: 84

Problem: Data request, read-out inhibition at 10 µM, for O=C(c1cc2ccc(Br)cc2[nH]1)c1cc2ccccc2cc1O
Solution: 72

Problem: Record request: inhibition at 10 µM value, item Cn1c(C(=O)Nc2nc3ccc(Br)cc3s2)cc2ccccc21
Solution: 61

Problem: Could you tell me which inhibition at 10 µM is on file for Oc1ccc(Br)cc1/C=N/c1nc2ccc(Br)cc2s1 ?
Solution: 77

---

- system.name: Human M2 PK (Homo sapiens, UniProt P14618)
- Construct: used as a template to generate the full-length human M2 PK enzyme; His tag (pET-28a(+) vector) (N); made in house; host or cells: E. coli BL-21 (DE3)
- Sequence (P14618 whole entry): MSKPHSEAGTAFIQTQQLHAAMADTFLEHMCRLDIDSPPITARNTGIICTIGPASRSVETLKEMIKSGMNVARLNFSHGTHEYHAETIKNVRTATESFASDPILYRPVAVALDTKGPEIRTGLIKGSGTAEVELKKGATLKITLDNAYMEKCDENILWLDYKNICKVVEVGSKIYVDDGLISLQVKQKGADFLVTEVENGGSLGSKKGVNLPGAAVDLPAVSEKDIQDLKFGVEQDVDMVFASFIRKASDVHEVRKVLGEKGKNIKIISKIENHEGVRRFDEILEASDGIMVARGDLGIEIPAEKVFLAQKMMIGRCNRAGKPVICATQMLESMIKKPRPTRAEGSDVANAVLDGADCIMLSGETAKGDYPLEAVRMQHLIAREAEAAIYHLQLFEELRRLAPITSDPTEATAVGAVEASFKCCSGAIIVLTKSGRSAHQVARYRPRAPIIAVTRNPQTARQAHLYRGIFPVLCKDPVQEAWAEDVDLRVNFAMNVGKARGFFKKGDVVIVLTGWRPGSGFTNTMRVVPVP
- test.summary: Human PK selectivity, LDH-coupled enzyme assay
- Assay type: biochemical
- measurement.parameters: at 10 μM; read-out: % Inhibition Human M2
measure.name: inhibition at 10 µM (%)
Output spec: scalar in %, unitless text.

Problem: Reported inhibition at 10 µM, compound Brc1ccc2cc(-c3cc4ccc(Br)cc4[nH]3)[nH]c2c1 [Compound 10b, 6,6′-Dibromo-1H,1′H-2,2′-biindole] : ____
Solution: 0.1

Problem: Which inhibition at 10 µM is listed for Brc1ccc2cc(CCc3cc4ccc(Br)cc4[nH]3)[nH]c2c1 [Compound 28a, 1,2-bis(6-bromo-1H-indol-2-yl)ethane] ?
Solution: 1.3

Problem: Dear colleague, I am looking for the recorded inhibition at 10 µM of the following compound: Brc1ccc2cc(-c3cc4cc(Br)c(Br)cc4[nH]3)[nH]c2c1 [Compound 10k, 5,6,6′-Tribromo-1H,1′H-2,2′-biindole]
Solution: 20.8
